- target: T1, mouse CD276 protein (mouse, UniProt Q8VE98 29-316)
- T1 construct: whole, on cells; also called mCD276; CHO-S-mCD276
- T1 sequence (looked up): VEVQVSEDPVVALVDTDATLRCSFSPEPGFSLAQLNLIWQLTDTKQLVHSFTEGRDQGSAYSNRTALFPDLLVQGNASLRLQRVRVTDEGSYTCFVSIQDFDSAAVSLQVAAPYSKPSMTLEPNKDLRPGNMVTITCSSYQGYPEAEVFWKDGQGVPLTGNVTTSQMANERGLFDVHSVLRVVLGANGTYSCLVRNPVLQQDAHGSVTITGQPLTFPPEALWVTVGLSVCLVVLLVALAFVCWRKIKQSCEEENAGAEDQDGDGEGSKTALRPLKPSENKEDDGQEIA
- method: FACS on CHO-S-mCD276 cells
measured-metric: FACS MFI
// return a plain number; no unit text

Task item: What does the data say about its FACS MFI? Entry: 9-G12-D6-A11 (antibody, V domains shown, mouse monoclonal antibody (hybridoma)) VH: DVQLQVSGPGLVKPSQSLSLTCSVAGYSITSDYYWNWIRQFPGNKLEWMGYISYDGTNNYNPSLKNRISITRDTSKGQFFLKFNSVTTEDTATYYCARGKDGSYYFDYWGQGTTLTVSS VL: QAVVTQESALTTSPGGTVILTCRSSTGAVTTSNYANWVQEKPDHLFTGLIGGTSNRAPGVPVRFSGSLIGDKAALTITGAQTEDDAMYFCALWYRTHYVFGGGTMVTVL
Reply: 1420

Task item: What does the data say about its FACS MFI? Entry: 9-E8-F9-C10 (antibody, V domains shown, mouse monoclonal antibody (hybridoma)) VH: EVQLQQSGAELVRPGTSVKISCKASGYAFSDYWLSWVKQRPGHGLEWIGDICPGSGNIYYNERFKDKVILTADRSSSTAYLQFSSLTSEDSVVYFCTRLITRVIDYWGQGTSVTVST VL: ENVLTQSPAIMSASPGEKVTMTCSASSSVNYMHWYQQKSSTSPKLWIYDTSKLSSGVPGRFSGSGSGNSYSLTISSMEAEDVATYYCFQGSGYPLTFGAGTKLELK
Reply: 1950

Task item: What does the data say about its FACS MFI? Entry: 6-F3-G2-G1 (antibody, V domains shown, mouse monoclonal antibody (hybridoma)) VH: QVQLQQPGAELVKPGASVKLSCKASDYTFTNYWMHWVKQRPGQGLEWIGMIHPNSGTTSYNEKFKNKATLTVDTSSATTYMHLSSLTSEDSAVYYCASHYGNSYSAMDYWGQGTSVTVSS VL: QAVVTQESALTTSPGGTVILTCRSSTGAVTTSNYANWVQEKPDHLFTGLIGGTSNRAPGVPVRFSGSLIGDKAALTITGAQTEDDAMYFCALWYSTHYVFGGGTKVTVL
Reply: 6980
